biological target: T1, human Sdc2 (human, UniProt P34741 19-144, limits assumed); assay: Octet tandem binning; saturating Ab f8 19844-R4M-P2-C02
T1 construct: Antigen of the Octet tandem binning, loaded on biosensors at 100 nM; also called huSdc2; hSdc2
T1 sequence (P34741 19-144 limits assumed): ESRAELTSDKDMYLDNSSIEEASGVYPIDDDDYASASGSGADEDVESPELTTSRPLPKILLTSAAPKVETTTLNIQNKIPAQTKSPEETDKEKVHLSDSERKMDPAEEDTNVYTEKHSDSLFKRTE
binders and their reported raw competing-Ab binding signal

BINDER: R3-P3-C11 (antibody, human IgG1, kappa, V domains shown, human IgG1 kappa from the phage campaign) VH: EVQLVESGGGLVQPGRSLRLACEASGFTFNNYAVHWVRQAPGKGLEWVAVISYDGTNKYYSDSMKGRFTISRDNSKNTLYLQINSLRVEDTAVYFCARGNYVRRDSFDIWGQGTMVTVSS VL: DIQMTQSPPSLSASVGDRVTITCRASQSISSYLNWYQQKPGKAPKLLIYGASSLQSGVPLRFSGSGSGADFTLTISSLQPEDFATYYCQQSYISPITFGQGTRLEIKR
raw competing-Ab binding signal: 0.479
//
BINDER: R4M-P1-A10 (antibody, human IgG1, kappa, V domains shown) VH: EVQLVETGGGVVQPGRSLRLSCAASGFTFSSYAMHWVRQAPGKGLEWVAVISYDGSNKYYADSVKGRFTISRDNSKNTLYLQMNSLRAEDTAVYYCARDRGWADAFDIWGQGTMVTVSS VL: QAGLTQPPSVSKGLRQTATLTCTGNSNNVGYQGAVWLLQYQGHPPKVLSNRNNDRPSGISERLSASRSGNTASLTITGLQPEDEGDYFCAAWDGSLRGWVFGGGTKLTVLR
raw competing-Ab binding signal: 0.211
//
BINDER: R4M-P3-A12 (antibody, human IgG1, kappa, V domains shown) VH: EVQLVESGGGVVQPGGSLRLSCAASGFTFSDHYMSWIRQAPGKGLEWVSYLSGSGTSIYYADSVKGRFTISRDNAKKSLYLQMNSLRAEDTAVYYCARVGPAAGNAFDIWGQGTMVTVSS VL: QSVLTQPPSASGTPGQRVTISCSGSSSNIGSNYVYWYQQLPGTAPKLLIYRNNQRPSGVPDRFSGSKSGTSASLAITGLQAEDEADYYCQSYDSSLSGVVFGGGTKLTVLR
raw competing-Ab binding signal: 0.0077
//
BINDER: 19838-6-N03-A (antibody, IgG1, V domains shown) VH: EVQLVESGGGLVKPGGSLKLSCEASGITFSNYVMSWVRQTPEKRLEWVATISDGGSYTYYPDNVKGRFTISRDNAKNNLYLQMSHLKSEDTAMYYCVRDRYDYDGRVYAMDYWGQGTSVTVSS VL: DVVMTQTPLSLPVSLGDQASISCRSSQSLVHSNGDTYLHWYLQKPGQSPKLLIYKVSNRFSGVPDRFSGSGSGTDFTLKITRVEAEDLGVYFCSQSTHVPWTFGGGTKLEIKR
raw competing-Ab binding signal: 0.326
//
BINDER: 6-N03-A (antibody, mouse IgG1, kappa, V domains shown) VH: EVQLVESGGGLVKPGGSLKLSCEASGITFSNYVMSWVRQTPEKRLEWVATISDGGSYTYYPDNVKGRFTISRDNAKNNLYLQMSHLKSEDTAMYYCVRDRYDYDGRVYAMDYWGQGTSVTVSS VL: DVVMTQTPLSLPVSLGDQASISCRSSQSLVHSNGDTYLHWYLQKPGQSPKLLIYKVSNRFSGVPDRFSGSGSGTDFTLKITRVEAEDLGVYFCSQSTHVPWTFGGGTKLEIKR
raw competing-Ab binding signal: 0.418
